- targetEntity: T1, orthogonal hCD122 receptor (hoRb), hCD122 with H133D and Y134F (human, UniProt P14784 27-550); further: reference of the scale not given here
- T1 sequence: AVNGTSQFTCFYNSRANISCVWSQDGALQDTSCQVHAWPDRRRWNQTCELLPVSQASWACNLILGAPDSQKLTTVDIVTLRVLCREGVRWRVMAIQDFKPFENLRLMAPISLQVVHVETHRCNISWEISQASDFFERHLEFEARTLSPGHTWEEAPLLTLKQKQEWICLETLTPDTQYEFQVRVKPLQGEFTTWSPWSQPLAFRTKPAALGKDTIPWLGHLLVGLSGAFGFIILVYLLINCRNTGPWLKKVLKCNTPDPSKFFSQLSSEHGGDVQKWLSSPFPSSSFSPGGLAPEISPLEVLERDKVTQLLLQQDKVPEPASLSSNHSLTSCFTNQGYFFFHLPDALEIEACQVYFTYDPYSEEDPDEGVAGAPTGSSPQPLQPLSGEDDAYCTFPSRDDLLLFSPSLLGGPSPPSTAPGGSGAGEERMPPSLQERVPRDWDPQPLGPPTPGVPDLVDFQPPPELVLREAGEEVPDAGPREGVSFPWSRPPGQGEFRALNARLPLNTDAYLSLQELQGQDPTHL
- testProtocol: cell-based or functional assay
measuredAttribute: Relative Proliferation Fold Change 3F8 1:50 (fold)
Please respond with the number in fold and leave the unit unwritten.

Quick check: Relative Proliferation Fold Change 3F8 1:50 of SQVLKY (ligand) APTSSSTKKTQLQLSQLLVLLKYILNGINNYKNPKLTRMLTFKFYMPKKATELKHLQCLEEELKPLEEVLNLAQSKNFHLRPRDLISNINVIVLELKGSETTFMCEYADETATIVEFLNRWITFCQSIISTLT ?
30.3

And L18S, SQVLKA (ligand) APTSSSTKKTQLQLSQLSVLLKAILNGINNYKNPKLTRMLTFKFYMPKKATELKHLQCLEEELKPLEEVLNLAQSKNFHLRPRDLISNINVIVLELKGSETTFMCEYADETATIVEFLNRWITFCQSIISTLT ?
41.9
